Biological target: PAR2 (HT-29 cells, trypsin activation) (Homo sapiens)
Construct: host or cells: HT-29 cells
Sequence (P55085 26-397): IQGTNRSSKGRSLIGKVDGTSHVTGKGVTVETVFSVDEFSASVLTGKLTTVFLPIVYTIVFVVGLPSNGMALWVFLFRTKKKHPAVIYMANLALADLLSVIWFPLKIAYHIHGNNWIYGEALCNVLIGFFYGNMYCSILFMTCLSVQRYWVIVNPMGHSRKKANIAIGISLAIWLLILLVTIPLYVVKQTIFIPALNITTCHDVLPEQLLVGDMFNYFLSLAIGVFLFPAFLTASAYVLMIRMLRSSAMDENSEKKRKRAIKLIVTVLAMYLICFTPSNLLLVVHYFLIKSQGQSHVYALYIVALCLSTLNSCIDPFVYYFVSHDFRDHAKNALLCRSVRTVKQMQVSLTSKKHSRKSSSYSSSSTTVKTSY
Assay: Ca FLIPR TETRA assay, ANTAGONIST mode, stimulation with 3.1 U/mL trypsin
Format: cell-based
Conditions: HT-29 cells, antagonist mode, stimulation with 3.1 U/mL trypsin
readout: pIC50
// returns pIC50 (minus log10 of molar concentration), number only

{"smiles.repr": "CC(C)c1cc(-c2ccc(Cl)c(F)c2)nn2cc(C(=O)N3CCNC(=O)C3(C)C)nc12", "readout.value": 8.89}
{"smiles.repr": "COC(=O)[C@H]1CC[C@@H](C(=O)N2CCN(C(=O)c3cn4nc(-c5ccc(Cl)cc5)cc(C(C)C)c4n3)C(C)(C)C2)CC1", "readout.value": 8.89}
{"smiles.repr": "CC(C)c1cc(-c2ccc(Cl)cc2)nn2cc(C(=O)N3CCNCC3(C)C)nc12", "readout.value": 6.32}
{"smiles.repr": "CC(C)(C)c1cc(C2CCC(F)(F)CC2)nn2cc(C(=O)N3CCN(c4cc[nH]n4)C(=O)C3(C)C)nc12", "readout.value": 7.70}
{"smiles.repr": "Cc1cc(C(=O)N2CCN(C(=O)c3cn4nc(-c5ccc(C(F)(F)F)cc5)cc(C(C)C)c4n3)C(C)(C)C2)[nH]n1", "readout.value": 8.89}

Fill blank: measured pIC50 of the molecule CC(C)(C)c1cc(-c2ccc(F)cc2)nn2cc(C(=O)N3CCN(C(=O)c4ccon4)CC3(C)C)nc12 is ____.
9.00

Which pIC50 is listed for CC(C)(C)c1cc(-c2ccc(C(F)(F)F)cc2)nn2cc(C(=O)N3CCN(c4cn[nH]c4)C(=O)C3(C)C)nc12 ?
8.60
